System: BALB/c mice, Madison 109 lung carcinoma i.m., survival
test: NCI In Vivo Anticancer Drug Screen. Data for tumor model Madison 109 Lung Carcinoma (intramuscular) in BALB/CM mice
condition: endpoint: median survival time; dose: 16.0 mg/kg/injection; schedule: Q01DX009 (ip); vehicle: saline; higher = longer survival
Inconclusive results and toxic doses are left out.
metric name: T/C

| compound | result |
| --- | --- |
| CCN(CC)CCOc1ccc2c(c1)C(=O)c1cc(OCCN(CC)CC)ccc1-2 | 101 % of control |
| NNC(=O)c1ccncc1 | 111 % of control |
| CC1=C(/C=C/C(C)=C/C=C/C(C)=C/C(=O)O)C(C)(C)CCC1 | 108 % of control |
| NC(C/[N+]([O-])=N/O)C(=O)O (stereo unspecified) | 118 % of control |
| O=C1c2ccccc2C(=O)c2c(NCCNCCO)ccc(NCCNCCO)c21 | 111 % of control |
| CC1=C(/C=C/C(C)=C/C=C/C(C)=C/CO)C(C)(C)CCC1 | 100 % of control |
